tested on: surinam grass (Brachiaria decumbens); test: Test E pre-/postemergence plant response; assay type: in vivo; conditions: Postemergence, 8 g ai/ha, scale 0 to 100
measured-quantity: Plant response rating, Surinam Grass
# answer = number (no unit)

record-smiles	Plant response rating, Surinam Grass
CCc1cc(-c2ccc(Cl)cc2)nn1-c1c(OS(C)(=O)=O)cnn(C)c1=O	95
Cn1ncc(O)c(-c2nn(-c3ccc(Cl)cc3)cc2Br)c1=O	20
Cc1cc(-c2ccc(Cl)cc2)nn1-c1c(OC(=O)C(C)C)cnn(C)c1=O	90
CCc1cc(-c2ccc(C(F)(F)F)cc2)nn1-c1c(O)cnn(C)c1=O	80

For reference, reported Plant response rating, Surinam Grass for CCc1cc(-c2ccc(Cl)cc2)nn1-c1c(OC(=O)C(C)(C)C)cnn(C)c1=O stands at 90

* * *

Readings of Plant response rating, Barley, Spring for the listed compounds
test system: spring barley (Hordeum vulgare); assay: Test C pre-/postemergence plant response; format: in vivo; settings: Preemergence, 31 g ai/ha; scale 0 to 100 (0 no effect, 100 complete control)
# answer = number (no unit)

Reference set, count: 3
record-smiles	Plant response rating, Barley, Spring
CCc1cc(-c2ccc(C(F)(F)F)cc2)nn1-c1c(O)cnn(C)c1=O	70
CCc1c(C)c(-c2ccc(Cl)cc2)nn1-c1c(O)cnn(C)c1=O	25
C#CCOC(=O)Oc1cnn(C)c(=O)c1-n1nc(-c2ccc(Cl)cc2)cc1C	10

Switching to the query record.
For reference, reported Plant response rating, Barley, Spring for Cc1cc(-c2ccc(Cl)cc2)nn1-c1c(OC(=O)c2ccccc2)cnn(C)c1=O stands at 30

* * *

Readings of Plant response rating, Barnyardgrass for the listed compounds
Test system: barnyardgrass (Echinochloa crus-galli)
Assay: Test A pre-/postemergence plant response
Format: in vivo
Details: Preemergence, 31 g ai/ha; 0 to 100 scale, 0 is no effect, 100 is complete control
From the text: […] Plants ranged in height from 2 to 10 cm and were in the one- to two-leaf stage for the postemergence treatment. Treated plants and untreated controls were maintained in a greenhouse for approximately 10 days, after which time all treated plants were compared to untreated controls and visually evaluated for injury. […]
# answer = number (no unit)

Reference set, count: 7
record-smiles	Plant response rating, Barnyardgrass
Cc1cc(-c2ccc(Cl)cc2)nn1-c1c(OS(=O)(=O)c2ccccc2[N+](=O)[O-])cnn(C)c1=O	80
CCc1cc(-c2ccc(C(F)(F)F)cc2)nn1-c1c(OC(=O)C2CCCCC2)cnn(C)c1=O	50
Cc1cc(-c2ccc(Cl)cc2)nn1-c1c(OC(=O)C(C)C)cnn(C)c1=O	70
CCc1cc(-c2ccc(C(F)(F)F)cc2)nn1-c1c(OC(=O)c2ccc(Cl)nc2)cnn(C)c1=O	50
CCc1cc(-c2ccc(Cl)cc2)nn1-c1c(OS(C)(=O)=O)cnn(C)c1=O	100
Cn1ncc(O)c(-c2nn(-c3ccc(C(F)(F)F)cn3)cc2Br)c1=O	0
Cc1cc(-c2ccc(Cl)cc2)nn1-c1c(OC(=O)OCC(C)C)cnn(C)c1=O	60

Switching to the query record.
For reference, reported Plant response rating, Barnyardgrass for Cn1ncc(O)c(-c2nn(-c3ccc(C(F)(F)F)cc3)cc2Cl)c1=O stands at 0

* * *

test system: large crabgrass (Digitaria sanguinalis); assay: Test A pre-/postemergence plant response; type: in vivo; details: Postemergence, 500 g ai/ha; 0 to 100 scale, 0 no effect, 100 complete control
Readings of Plant response rating, Crabgrass, Large for the listed compounds
# answer = number (no unit)

Reference set, count: 3
record-smiles	Plant response rating, Crabgrass, Large
Cc1nn(-c2ccc(Cl)cc2)cc1-c1c(O)cnn(C)c1=O	50
Cc1cc(-c2ccc(Br)cc2)nn1-c1c(O)cnn(C)c1=O	100
COc1ccc(-c2cc(C)n(-c3c(O)cnn(C)c3=O)n2)cc1	90

Switching to the query record.
For reference, reported Plant response rating, Crabgrass, Large for Cn1ncc(O)c(-c2nn(-c3ccc(Cl)cc3)cc2Cl)c1=O stands at 90

// provenance: patent US20100267561A1
